Catalogue of pKi values
# TARGET_DESC: human GABAA α2β2γ1 receptor (Homo sapiens (Human), UniProt P47869+Q8N1C3)
# PROTOCOL_SUMMARY: Radioligand binding assay, competition for [3H]RO7239181, γ1-containing GABAA subtypes
# CONDITION_CONTEXT: Ki h-GABAA α2β2γ1, membranes of HEK293F cells, [3H]RO7239181 20-30 nM, Table 2
Answer as the number alone; pKi is minus log10 of concentration in mol/L.

// solved cases for pKi follow
Cc1nnc2n1-c1sc3c(c1C(c1c(F)cccc1F)=N[C@H]2C)CCCC[C@@H]3F (single isomer, unassigned): 7.47
Cc1nnc2n1-c1sc3c(c1C(c1c(F)cccc1F)=N[C@H]2C)CCCCC3F (single isomer, unassigned): 7.74

The reported pKi of the compound `CCc1nc2n(n1)-c1sc3c(c1C(c1c(F)cccc1F)=N[C@H]2C)COC[C@H](C)O3` was 7.28

The reported pKi of the compound `Cc1nc2n(n1)-c1sc3c(c1C(c1c(F)cccc1F)=N[C@H]2C)COC[C@H](C)O3` was 7.24

The reported pKi of the compound `C[C@@H]1N=C(c2c(F)cccc2F)c2c(sc3c2COCCO3)-n2cc(C(=O)NCC(C)(C)O)nc21` was 8.05

The reported pKi of the compound `C[C@@H]1N=C(c2c(F)cccc2F)c2c(sc3c2COCCC3)-n2nc(C(=O)NC[C@@](C)(O)C(F)(F)F)nc21` was 7.30

The reported pKi of the compound `C[C@@H]1N=C(c2c(F)cccc2F)c2c(sc3c2COCCC3)-n2nc(C(=O)N[C@H]3C[C@H](O)C3)nc21` was 7.34

----------
# TARGET_DESC: human GABAA α5β2γ1 receptor (Homo sapiens (Human), UniProt P31644+Q8N1C3)
# PROTOCOL_SUMMARY: Radioligand binding assay, competition for [3H]RO7239181, γ1-containing GABAA subtypes
# Experimental: The affinity of compounds at GABAA γ1 subunit-containing receptors was measured by competition for [^3H]RO7239181 (67.3 Ci/mmol; Roche) binding to membranes from HEK293F cells (ThermoFisher R79007) expressing human (transiently transfected) receptors of composition α5β2γ1, α2β2γ1, α1β2γ1. […]
Catalogue of Ki values
Response body: numeric value in nM, unit text excluded.

// solved cases for Ki follow
Cc1nnc2n1-c1sc3c(c1C(c1c(F)cccc1F)=N[C@H]2C)CC[C@@H](F)CC3 (single isomer, unassigned): 8
Cc1nnc2n1-c1sc3c(c1C(c1c(F)cccc1F)=NC2)CCCCC3: 1.4
C[C@@H]1N=C(c2c(F)cccc2F)c2c(sc3c2CCCCC3)-n2c(-c3cccnn3)nnc21: 8.65
C[C@@H]1N=C(c2c(F)cccc2F)c2c(sc3c2COC[C@H](C)O3)-n2nc(C(=O)N3CC(F)C3)nc21: 2.65
C[C@@H]1N=C(c2c(F)cccc2F)c2c(sc3c2COCCO3)-n2nc(C(=O)NCC(C)(C)O)nc21: 3.25
Cc1nnc2n1-c1sc3c(c1C(c1c(F)cccc1F)=N[C@H]2C)CCCCC3O (mixture of isomers): 2.79

# next molecule below
// returns Ki for `C[C@@H]1N=C(c2c(F)cccc2F)c2c(sc3c2COCCC3)-n2cc(C(=O)NCC3(O)CC3)nc21` with human GABAA α5β2γ1 receptor (Homo sapiens (Human), UniProt P31644+Q8N1C3); value = 2.95
